Reported AUC values for the following compounds.
experiment: AUC in Sprague-Dawley rat at 3 mg/kg, po by LC-MS/MS analysis; assay type: ADME, organism-based; conditions: in vivo
MEASURED_ATTRIBUTE: AUC

>  <COMPOUND_STRING>
COc1cc(C2CN(C(=O)c3cc(COC[C@@H](O)CO)ccn3)C2)ccc1OCc1ccc(C2CC2)cc1

>  <OBSERVED_RESULT>
2.22 µM·h

$$$$
>  <COMPOUND_STRING>
COc1cc(C2CN(C(=O)c3cc(OC[C@H](O)CO)ccn3)C2)ccc1OCc1ccc(C2CC2)cc1

>  <OBSERVED_RESULT>
4.15 µM·h

$$$$
>  <COMPOUND_STRING>
COc1cc(C2CN(C(=O)c3cc(COCC(CO)(CO)CO)ccn3)C2)ccc1OCc1ccc(C2CC2)cc1

>  <OBSERVED_RESULT>
1.63 µM·h

$$$$

====

Reported bioavailability values for the following compounds.
assay: Oral bioavailability in Sprague-Dawley rat at 3 mg/kg by LC-MS/MS analysis; type: ADME, organism-based; conditions: in vivo
MEASURED_ATTRIBUTE: bioavailability

>  <COMPOUND_STRING>
COc1cc(C2CN(C(=O)c3cc(COCC(CO)(CO)CO)ccn3)C2)ccc1OCc1ccc(C2CC2)cc1

>  <OBSERVED_RESULT>
116%

$$$$
>  <COMPOUND_STRING>
COc1cc(C2CN(C(=O)c3cc(OC[C@H](O)CO)ccn3)C2)ccc1OCc1ccc(C2CC2)cc1

>  <OBSERVED_RESULT>
75.8%

$$$$
>  <COMPOUND_STRING>
COc1cc(C2CN(C(=O)c3cc(COC[C@@H](O)CO)ccn3)C2)ccc1OCc1ccc(C2CC2)cc1

>  <OBSERVED_RESULT>
85.1%

$$$$
